# study-system: Mitogen-activated protein kinase 9 (Homo sapiens, UniProt P45984)
# Sequence (P45984 whole entry, looked up): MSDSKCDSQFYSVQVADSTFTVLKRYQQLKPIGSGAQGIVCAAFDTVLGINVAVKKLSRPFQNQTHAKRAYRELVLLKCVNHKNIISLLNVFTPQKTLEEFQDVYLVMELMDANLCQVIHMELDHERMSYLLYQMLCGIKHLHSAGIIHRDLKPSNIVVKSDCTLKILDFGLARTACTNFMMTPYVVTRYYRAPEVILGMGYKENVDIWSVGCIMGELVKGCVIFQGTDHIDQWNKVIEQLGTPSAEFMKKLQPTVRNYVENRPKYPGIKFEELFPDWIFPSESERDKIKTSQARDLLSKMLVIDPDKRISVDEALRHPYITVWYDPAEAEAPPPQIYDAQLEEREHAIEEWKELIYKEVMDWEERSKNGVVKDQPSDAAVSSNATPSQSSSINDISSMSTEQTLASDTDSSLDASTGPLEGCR
# protocol-summary: Inhibition of human JNK2 at 10 uM in presence of ATP relative to control
Measured inhibition of individual entries
Respond with a number, then the unit of measure.

Some entries whose results are on file:
smiles-notation | inhibition
COc1ccc(S(=O)(=O)NCCCNc2cc(-c3cn(C(C)(C)C)nc3-c3cccc(O)c3)ccn2)cc1 | 98.5%
CC(C)(C)n1cc(-c2ccnc(NCCCNS(=O)(=O)c3ccc(C(F)(F)F)cc3)c2)c(-c2cccc(O)c2)n1 | 98.7%
COc1cccc(-c2nn(C(C)(C)C)cc2-c2ccnc(NCCCNS(=O)(=O)c3ccc(Br)cc3)c2)c1 | 57.7%

Here is the next item to consider.
Value lookup for inhibition; key = CC(C)(C)n1cc(-c2ccnc(NCCCNS(=O)(=O)c3ccc(Br)cc3)c2)c(-c2cccc(O)c2)n1
99.3%

====

// reported inhibition per item
# study-system: Mitogen-activated protein kinase 10 (Homo sapiens)
# Sequence (P53779 whole entry): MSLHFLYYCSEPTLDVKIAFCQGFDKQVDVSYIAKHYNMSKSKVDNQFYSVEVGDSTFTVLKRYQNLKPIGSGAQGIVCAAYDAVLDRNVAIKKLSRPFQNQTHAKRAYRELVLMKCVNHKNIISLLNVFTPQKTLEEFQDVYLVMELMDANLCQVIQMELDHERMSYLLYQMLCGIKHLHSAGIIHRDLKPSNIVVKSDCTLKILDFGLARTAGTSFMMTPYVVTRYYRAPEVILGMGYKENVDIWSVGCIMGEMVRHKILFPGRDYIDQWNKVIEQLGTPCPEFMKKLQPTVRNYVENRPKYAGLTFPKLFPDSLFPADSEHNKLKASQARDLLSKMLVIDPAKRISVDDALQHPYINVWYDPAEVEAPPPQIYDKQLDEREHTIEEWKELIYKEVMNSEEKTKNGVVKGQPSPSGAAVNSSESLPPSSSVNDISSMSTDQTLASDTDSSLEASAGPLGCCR
# protocol-summary: Inhibition of human JNK3 at 10 uM in presence of ATP relative to control
Note: unit % is implicit; provide only the numeric part.

In the examples that follow, each entry is paired with its recorded inhibition.
smiles-notation | inhibition [%]
COc1ccc(S(=O)(=O)NCCCNc2cc(-c3cn(C(C)(C)C)nc3-c3cccc(O)c3)ccn2)cc1 | 98
Cc1ccc(S(=O)(=O)NCCCNc2cc(-c3cn(C(C)(C)C)nc3-c3cccc(O)c3)ccn2)cc1 | 98.2
COc1ccc(S(=O)(=O)NCCNc2cc(-c3cn(C(C)(C)C)nc3-c3cccc(O)c3)ccn2)cc1 | 96.2

Turning to the following compound.
Please tell me: inhibition of CC(C)(C)n1cc(-c2ccnc(NCCCNS(=O)(=O)c3ccc(F)cc3)c2)c(-c2cccc(O)c2)n1 , system Mitogen-activated protein kinase 10 (Homo sapiens)?
98.5

====

# Test system: UACC-62
# protocol-summary: Growth inhibition of human UACC-62 cells assessed as reduction in cell viability measured after 48 hrs by SRB assay
# Type: functional
Lab note - cut at 2000 nM for GI50: yes (1) if strictly below, no (0) if not.

smiles-notation | category-label
CC(C)(C)n1cc(-c2ccnc(NCCCNS(=O)(=O)c3ccc(C(F)(F)F)cc3)c2)c(-c2cccc(O)c2)n1 | yes (1)
CC(C)(C)n1cc(-c2ccnc(NCCCNS(=O)(=O)c3ccc(Br)cc3)c2)c(-c2cccc(O)c2)n1 | yes (1)
CC(C)(C)n1cc(-c2ccnc(NCCCNS(=O)(=O)c3cccc4ccccc34)c2)c(-c2cccc(O)c2)n1 | yes (1)
CC(C)(C)n1cc(-c2ccnc(NCCCNS(=O)(=O)c3ccc(Cl)cc3)c2)c(-c2cccc(O)c2)n1 | yes (1)

Please find the next molecule below.
Identify whether the molecule O=C1c2ccccc2-c2n[nH]c3cccc1c23 records GI50 below 2000 nM.
no (0)

====

# study-system: Mitogen-activated protein kinase 8 (Homo sapiens, UniProt P45983)
# Sequence (P45983 whole entry): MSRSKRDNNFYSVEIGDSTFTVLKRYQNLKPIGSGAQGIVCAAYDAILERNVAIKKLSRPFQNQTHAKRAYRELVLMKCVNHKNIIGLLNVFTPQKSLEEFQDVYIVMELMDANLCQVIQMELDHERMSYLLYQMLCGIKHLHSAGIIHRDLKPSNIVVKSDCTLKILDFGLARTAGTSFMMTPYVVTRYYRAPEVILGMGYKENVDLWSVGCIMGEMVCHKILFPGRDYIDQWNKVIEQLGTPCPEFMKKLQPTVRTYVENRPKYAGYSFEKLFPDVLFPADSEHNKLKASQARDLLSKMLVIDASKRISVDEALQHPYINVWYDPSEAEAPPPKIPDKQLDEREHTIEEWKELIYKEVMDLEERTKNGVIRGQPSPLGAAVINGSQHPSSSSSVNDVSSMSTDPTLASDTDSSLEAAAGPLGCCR
# protocol-summary: Inhibition of human JNK1 at 10 uM in presence of ATP relative to control
// criterion not met strictly below 90% in inhibition; criterion met otherwise

Below are worked cases with known answers.
smiles-notation | category-label
CC(C)(C)n1cc(-c2ccnc(NCCNS(=O)(=O)c3ccc(C(F)(F)F)cc3)c2)c(-c2cccc(O)c2)n1 | criterion not met
CC(C)(C)n1cc(-c2ccnc(NCCNS(=O)(=O)c3ccc(F)cc3)c2)c(-c2cccc(O)c2)n1 | criterion not met
COc1cccc(-c2nn(C(C)(C)C)cc2-c2ccnc(NCCNS(=O)(=O)c3ccccc3)c2)c1 | criterion not met
COc1cccc(-c2nn(C(C)(C)C)cc2-c2ccnc(NCCCNS(=O)(=O)c3cccc(F)c3)c2)c1 | criterion not met
COc1cccc(-c2nn(C(C)(C)C)cc2-c2ccnc(NCCCNS(=O)(=O)c3cccc4ccccc34)c2)c1 | criterion not met

Quick check: does CC(C)(C)n1cc(-c2ccnc(NCCNS(=O)(=O)c3ccccc3)c2)c(-c2cccc(O)c2)n1 have inhibition greater than or equal to 90%?
criterion not met

Does the reported inhibition for CC(C)(C)n1cc(-c2ccnc(NCCNS(=O)(=O)c3cccc4ccccc34)c2)c(-c2cccc(O)c2)n1 fall at or above the 90% mark?
criterion not met

Does the molecule CC(C)(C)n1cc(-c2ccnc(NCCCNS(=O)(=O)c3cccc(F)c3)c2)c(-c2cccc(O)c2)n1 have recorded inhibition that is 90% or more?
criterion met

Evaluate CC(C)(C)n1cc(-c2ccnc(NCCCNS(=O)(=O)c3ccc(C(F)(F)F)cc3)c2)c(-c2cccc(O)c2)n1 : inhibition at minimum 90%?
criterion met

Answer whether inhibition of CC(C)(C)n1cc(-c2ccnc(NCCCNS(=O)(=O)c3ccc(Cl)cc3)c2)c(-c2cccc(O)c2)n1 is greater than or equal to 90%.
criterion met
